These entries and their values trace back to patent US20240279227A1.

- Tested on: HBV
- METHOD DESCRIPTION: Anti-HBV activity in HepG2.117 cell line (intracellular HBV DNA, real-time PCR)
- Type: cell-based, hepatitis B virus
- CONDITION SET: HepG2.117 cells, HBV replication induced, 3 days of treatment, intracellular HBV DNA by real-time PCR
Measured EC50 of individual entries
MEASURED PROPERTY: EC50 (µM)

COMPOUND	QUANTITATIVE READOUT
CNC(=O)[C@@H]1CN(C(C)c2ccc(-n3nnc(C)n3)cc2)C(=O)c2c3c(nn21)C[C@@H](C)N(C(=O)c1ccc(Cl)c(Cl)c1)C3 (single isomer, unassigned) [Compound 30B]	0.017
CNC(=O)[C@@H]1CN(C(C)c2ccc(S(C)(=O)=O)cc2)C(=O)c2c3c(nn21)C[C@@H](C)N(C(=O)c1ccc(Cl)c(C(F)(F)F)c1)C3 (single isomer, unassigned) [Compound 19A]	0.12
CC(c1ccc(OC(F)F)cc1)N1C[C@@H](C(=O)NC2CC2)n2nc3c(c2C1=O)CN(C(=O)c1ccc(Cl)c(C#N)c1)[C@H](C)C3 (single isomer, unassigned) [Compound 26A]	0.19
CNC(=O)[C@@H]1CN(C(C)c2ccc(OC(F)F)c(F)c2)C(=O)c2c3c(nn21)C[C@@H](C)N(C(=O)c1ccc(Cl)c(Cl)c1)C3 (single isomer, unassigned) [Compound 24A]	0.054
CNC(=O)[C@@H]1CN(C(C)c2ccc(C(C)(C)O)cn2)C(=O)c2c3c(nn21)C[C@@H](C)N(C(=O)c1ccc(Cl)c(Cl)c1)C3 (single isomer, unassigned) [Compound 39B]	0.12

###

- METHOD DESCRIPTION: Human liver microsome stability
- Format: in vitro ADME
- CONDITION SET: human, pooled human liver microsomes, pH 7.4, pooled human liver microsomes 0.5 mg/mL, 1 μM compound, NADPH 1 mM, pH 7.4, 37° C., 0-60 min; read-out: HLM Metabolism t1/2
Below, each of the compounds is paired with its reported half-life at 1 μM value.

COMPOUND	half-life at 1 μM
C[C@@H]1Cc2nn3c(c2CN1C(=O)c1ccc(Cl)c(Cl)c1)C(=O)N([C@H](C)c1ccc(C#N)cc1)CC3 [Ref 4, reference compound]	0.225 h
CNC(=O)[C@@H]1CN(C(C)c2ccn(CC(F)(F)F)n2)C(=O)c2c3c(nn21)C[C@@H](C)N(C(=O)c1ccc(Cl)c(C(F)(F)F)c1)C3 (single isomer, unassigned) [Compound 14B]	> 3 h
CNC(=O)[C@@H]1CN(C(C)c2cc(F)ccn2)C(=O)c2c3c(nn21)C[C@@H](C)N(C(=O)c1ccc(Cl)c(Cl)c1)C3 (single isomer, unassigned) [Compound 42A]	> 3 h

###

- METHOD DESCRIPTION: Cytotoxicity, ATPlite Luminescence Assay
- Type: cell-based, human
- CONDITION SET: human, HepG2 or HepG2.117 cells, 3-days incubation unless marked with *, ATPlite viability
Catalogue of CC50 readings, one per entry.
MEASURED PROPERTY: CC50

COMPOUND	RESULT
CNC(=O)[C@@H]1CN(C(C)c2ccc(-c3nnnn3C)cc2)C(=O)c2c3c(nn21)C[C@@H](C)N(C(=O)c1ccc(Cl)c(Cl)c1)C3 (single isomer, unassigned) [Compound 29A]	> 50 µM
CNC(=O)[C@@H]1CN(C(C)c2ccc(N3CCCC3=O)nc2)C(=O)c2c3c(nn21)C[C@@H](C)N(C(=O)c1ccc(Cl)c(Cl)c1)C3 (single isomer, unassigned) [Compound 34A]	> 50 µM
CNC(=O)[C@@H]1CN(C(C)c2ccc(OC(F)F)c(F)c2)C(=O)c2c3c(nn21)C[C@@H](C)N(C(=O)c1ccc(Cl)c(Cl)c1)C3 (single isomer, unassigned) [Compound 24A]	20.6 µM
